Biological target: rat NaP2b (SLC34A2) (Rattus norvegicus)
Construct: host or cells: HEK293
Sequence (Q9JJ09 whole entry): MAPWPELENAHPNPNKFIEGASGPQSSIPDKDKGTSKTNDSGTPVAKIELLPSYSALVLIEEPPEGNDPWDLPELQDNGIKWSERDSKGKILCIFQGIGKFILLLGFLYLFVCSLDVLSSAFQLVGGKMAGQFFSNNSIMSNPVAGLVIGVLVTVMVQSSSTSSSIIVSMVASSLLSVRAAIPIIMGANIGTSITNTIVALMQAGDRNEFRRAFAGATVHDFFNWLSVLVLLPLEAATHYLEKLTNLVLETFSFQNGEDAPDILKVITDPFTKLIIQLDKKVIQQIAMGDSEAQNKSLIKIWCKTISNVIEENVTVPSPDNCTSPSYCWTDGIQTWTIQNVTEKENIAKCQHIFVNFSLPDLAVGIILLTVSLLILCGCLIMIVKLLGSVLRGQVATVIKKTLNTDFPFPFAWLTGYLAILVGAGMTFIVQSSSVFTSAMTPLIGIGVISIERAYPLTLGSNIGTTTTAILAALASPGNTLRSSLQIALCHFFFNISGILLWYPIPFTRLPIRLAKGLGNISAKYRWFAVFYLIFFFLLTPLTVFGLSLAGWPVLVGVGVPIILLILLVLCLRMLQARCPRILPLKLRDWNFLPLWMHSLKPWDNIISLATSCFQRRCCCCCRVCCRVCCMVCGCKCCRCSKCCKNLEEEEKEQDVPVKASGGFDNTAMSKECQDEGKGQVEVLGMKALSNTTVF
Experiment: Inhibition of NaP2b-mediated Pi (33P) uptake in transfected HEK293 cells, rat NaP2b
Assay type: cell-based
Details: 33P Pi uptake, 0.1 mM phosphate, value given as pIC50 range
READOUT_KIND: IC50

Consider the reported IC50 for these molecules:
[[record]]
given_smiles = "CCN(CC)c1ccc(NC(=O)c2cccc(C(=O)N(C)CCN(C)CCOCCOCCOCCNC(=O)c3cccnc3)c2)c(-c2cc(C(=O)N[C@H]3CCCc4ccccc43)ccn2)c1"
readout_kind = "IC50"
result_value = "1 to 7.94 µM"

[[record]]
given_smiles = "O=C(O)CCSCc1cccc(C(=O)Nc2ccc(N3CCCCC3)cc2-c2cc(C(=O)NCC3CCCCC3)ccn2)c1"
readout_kind = "IC50"
result_value = "1 to 7.94 µM"

[[record]]
given_smiles = "O=C(O)c1cccc(S(=O)(=O)Cc2cccc(C(=O)Nc3ccc(N4CCCCC4)cc3-c3cc(C(=O)NCc4cccc(C(F)(F)F)c4)ccn3)c2)c1"
readout_kind = "IC50"
result_value = "10 to 31.6 µM"

[[record]]
given_smiles = "CCN(CC)c1ccc(NC(=O)c2cccc(CCCOCCOCCOCCOCCC(=O)NCCOCCOCCOCCOCCOCCOCCOC)c2)c(-c2cc(C(=O)NCc3cccc(C(F)(F)F)c3)ccn2)c1"
readout_kind = "IC50"
result_value = "1 to 7.94 µM"

[[record]]
given_smiles = "CC(C)(SCc1cccc(C(=O)Nc2ccc(N3CCCCC3)cc2-c2cc(C(=O)NCc3cccc(C(F)(F)F)c3)ccn2)c1)C(=O)O"
readout_kind = "IC50"
result_value = "1 to 7.94 µM"

[[record]]
given_smiles = "O=C(O)c1ccc(SCc2cccc(C(=O)Nc3ccc(N4CCCCC4)cc3-c3cc(C(=O)NCc4cccc(C(F)(F)F)c4)ccn3)c2)cc1"
readout_kind = "IC50"
result_value = "1 to 7.94 µM"


Quick request: IC50 for each listed item, please.
1. O=C(O)CCSCc1cccc(C(=O)Nc2ccc(N3CCCCC3)cc2-c2cc(NCc3ccccc3)ncn2)c1
2. CN(CCOCCOCCOCCC(=O)O)Cc1cccc(C(=O)Nc2ccc(N3CCCCC3)cc2-c2cc(C(=O)NCc3cccc(C(F)(F)F)c3)ccn2)n1
3. O=C(O)CCSCc1cccc(C(=O)Nc2ccc(N3CCCCC3)cc2-c2cc(NCCc3cccc(C(F)(F)F)c3)ncn2)c1
4. O=C(O)CCSCc1cccc(C(=O)Nc2ccc(N3CCCCC3)cc2-c2cc(Oc3cccc(C(F)(F)F)c3)ccn2)c1
5. COCCN(C)C(=O)N1CCN(CCN(C)Cc2cccc(C(=O)Nc3ccc(N4CCCCC4)cc3-c3cc(C(=O)NCc4cccc(C(F)(F)F)c4)ccn3)c2)CC1

10 to 31.6 µM
10 to 31.6 µM
10 to 31.6 µM
10 to 31.6 µM
1 to 7.94 µM
